Tested on: SNB-75
Assay: Growth inhibition of human SNB75 cells at 10^-5 M after 48 hrs by Sulforhodamine B assay relative to control
Format: functional
Details: SNB-75, 48 h, read-out: GI
PROPERTY: inhibition of growth at 10 µM
Number first, unit second.

1. Clc1nc(-c2ccccn2)nc2sc3c(c12)CCCCCC3 | 15%
2. Clc1nc(-c2ccncc2)nc2sc3c(c12)CCCCCC3 | 9.59%
3. c1cc(-c2nc(N3CCOCC3)c3c4c(sc3n2)CCCCCC4)ccn1 | 0.97%
4. CN1CCN(c2nc(-c3ccccn3)nc3sc4c(c23)CCCCCC4)CC1 | 14.4%
5. NNc1nc(-c2ccncc2)nc2sc3c(c12)CCCCCC3 | 18.8%

stdin: What reported inhibition of growth at 10 µM corresponds to c1ccc(N2CCN(c3nc(-c4ccncc4)nc4sc5c(c34)CCCCCC5)CC2)cc1 on SNB-75?
stdout: -23.8%

stdin: What reported inhibition of growth at 10 µM corresponds to COc1ccc(N2CCN(c3nc(-c4ccncc4)nc4sc5c(c34)CCCCCC5)CC2)cc1 on SNB-75?
stdout: -13.7%

stdin: What reported inhibition of growth at 10 µM corresponds to c1ccc(N2CCN(c3nc(-c4ccccn4)nc4sc5c(c34)CCCCCC5)CC2)cc1 on SNB-75?
stdout: 9.19%

###

Test system: IGROV-1
Experiment: Growth inhibition of human IGROV1 cells at 10^-5 M after 48 hrs by Sulforhodamine B assay relative to control
Type: functional
Settings: IGROV-1, 48 h, read-out: GI
PROPERTY: inhibition of growth at 10 µM (%)
Write the number in % without appending the unit.

stdin: For Clc1nc(-c2ccccn2)nc2sc3c(c12)CCCCCC3 , what is its reported inhibition of growth at 10 µM?
stdout: 10.2

stdin: For c1ccc(N2CCN(c3nc(-c4ccccn4)nc4sc5c(c34)CCCCCC5)CC2)cc1 , what is its reported inhibition of growth at 10 µM?
stdout: 62.9

###

Tested on: MCF7
Assay: Growth inhibition of human MCF7 cells after 48 hrs by Sulforhodamine B assay
Assay type: functional
Details: MCF7, 48 h
Collected GI50 values appear next to each entry.
Write the number in µM without appending the unit.

Recorded results for 4 molecules are shown here.
1. c1ccc(-c2nc(N3CCOCC3)c3c4c(sc3n2)CCCCCC4)nc1 | 3.02
2. COc1ccc(N2CCN(c3nc(-c4ccccn4)nc4sc5c(c34)CCCCCC5)CC2)cc1 | 3.16
3. CN1CCN(c2nc(-c3ccncc3)nc3sc4c(c23)CCCCCC4)CC1 | 6.61
4. NNc1nc(-c2ccccn2)nc2sc3c(c12)CCCCCC3 | 3.8

Attention now turns to another entry.
stdin: For O=c1[nH]c(-c2ccccn2)nc2sc3c(c12)CCCCCC3 , what is its reported GI50?
stdout: 2.45

###

Collected inhibition of growth at 10 µM values appear next to each entry.
System: UO-31
Assay: Growth inhibition of human UO31 cells at 10^-5 M after 48 hrs by Sulforhodamine B assay relative to control
Assay type: functional
Conditions: UO-31, 48 h, read-out: GI
Write the number in % without appending the unit.

Recorded results for 5 molecules are shown here.
1. Clc1nc(-c2ccncc2)nc2sc3c(c12)CCCCCC3 | 13.9
2. COc1ccc(N2CCN(c3nc(-c4ccncc4)nc4sc5c(c34)CCCCCC5)CC2)cc1 | 11.1
3. CN1CCN(c2nc(-c3ccccn3)nc3sc4c(c23)CCCCCC4)CC1 | 32.8
4. c1ccc(N2CCN(c3nc(-c4ccccn4)nc4sc5c(c34)CCCCCC5)CC2)cc1 | 55.8
5. c1cc(-c2nc(N3CCOCC3)c3c4c(sc3n2)CCCCCC4)ccn1 | 38.7

stdin: For Clc1nc(-c2ccccn2)nc2sc3c(c12)CCCCCC3 , what is its reported inhibition of growth at 10 µM?
stdout: 83.6

stdin: For NNc1nc(-c2ccncc2)nc2sc3c(c12)CCCCCC3 , what is its reported inhibition of growth at 10 µM?
stdout: 20.4

stdin: For c1ccc(N2CCN(c3nc(-c4ccncc4)nc4sc5c(c34)CCCCCC5)CC2)cc1 , what is its reported inhibition of growth at 10 µM?
stdout: 16.1
